Provide the reported % Inhibition of Cell Viability at 10 μM A549 of each item.
Test system: A549 cells
Assay: Cell viability assay (MTS) in A549 cells
Assay type: cell-based
Details: 10 μM, mean, n = 3
One number for each entry, in %.

# compound, assay value
data = [
    ("N#Cc1c2c3[nH]c4ccccc4c3c(-c3ccccc3)nc2n2ccccc12 [Compound 10a]", 45.9),
    ("COc1ccc(-c2nc3c(c(C#N)c4ccccn43)c3cccn23)cc1", 25.5),
]

For each of the compounds below, note its % Inhibition of Cell Viability at 10 μM A549.
1. COc1cc(-c2nc3c(c(C#N)c4ccccn43)c3cccn23)cc(OC)c1OC
2. N#Cc1c2c3cccn3c(-c3cccs3)nc2n2ccccc12
3. N#Cc1c2c3cccn3c(-c3ccccn3)nc2n2ccccc12
4. N#Cc1c2c3cccn3c(-c3cc4ccccc4[nH]3)nc2n2ccccc12
5. N#Cc1c2c3cccn3c(-c3ccc(Cl)cc3)nc2n2ccccc12
6. COc1ccc(-c2nc3c(c(C#N)c4ccccn43)c3cccn23)cc1OC

1: 25.3; 2: 38.0; 3: 29.0; 4: 46.9; 5: 52.5; 6: 47.1

Any idea what % Inhibition of Cell Viability at 10 μM A549 was measured for "N#Cc1c2c3cccn3c(-c3ccc(Br)cc3)nc2n2ccccc12" ?
36.7

From: paper PMC9694334
